target: 3',5'-cyclic-AMP phosphodiesterase 4B (Homo sapiens); assay: Inhibition of His-tagged recombinant human PDE4B expressed in baculovirus infected sf9 cells using cAMP as substrate at 30 uM preincubated for 15 mins followed by substrate addition measured after 1 hr by luminescence assay
Activity calls are given as the source filed them. The rule behind the calls is not given here.
property: inhibition

INSERT INTO results (smiles_data, property, obs_value) VALUES
  ('NC(=O)c1cccc(-c2c(-c3ccccc3)oc(=O)c3c2nn2c(-c4ccccc4)ccnc32)c1', 'inhibition', '93%'),
  ('CCCCCC#Cc1c(CCCCCC)oc(=O)c2c1nn1c(-c3ccccc3)ccnc21', 'inhibition', '50%'),
  ('CCCCCCc1oc(=O)c2c(nn3c(-c4ccccc4)ccnc23)c1/C=C/C(=O)OCC', 'inhibition', 'inactive'),
  ('CCCCCCc1oc(=O)c2c(nn3c(-c4ccccc4)ccnc23)c1/C=C/C(=O)OC(C)(C)C', 'inhibition', 'inactive'),
  ('O=c1oc(-c2ccccc2)c(-c2cccc([N+](=O)[O-])c2)c2nn3c(-c4ccccc4)ccnc3c12', 'inhibition', '74%'),
  ('O=c1oc(-c2ccccc2)c(-c2ccc(F)cc2)c2nn3c(-c4ccccc4)ccnc3c12', 'inhibition', '66%'),
  ('CCCCCCc1oc(=O)c2c(nn3c(-c4ccccc4)ccnc23)c1-c1cccc(C(N)=O)c1', 'inhibition', '85%'),
  ('CCCCCC#Cc1c(-c2ccccc2)oc(=O)c2c1nn1c(-c3ccccc3)ccnc21', 'inhibition', '50%');

Okay, next one:
Req: // returns reported inhibition for input `O=c1oc(-c2ccccc2)c(-c2cnc3ccccc3c2)c2nn3c(-c4ccccc4)ccnc3c12`
Resp: 74%

====

biological target: 3',5'-cyclic-AMP phosphodiesterase 4D (Homo sapiens); test: Inhibition of PDE4D3 (unknown origin) transfected in HEK293 cells assessed as forskolin-induced cAMP accumulation pretreated for 30 mins before forskolin challenge by luciferase reporter gene assay; assay type: cell-based
Sequence (Q08499 whole entry): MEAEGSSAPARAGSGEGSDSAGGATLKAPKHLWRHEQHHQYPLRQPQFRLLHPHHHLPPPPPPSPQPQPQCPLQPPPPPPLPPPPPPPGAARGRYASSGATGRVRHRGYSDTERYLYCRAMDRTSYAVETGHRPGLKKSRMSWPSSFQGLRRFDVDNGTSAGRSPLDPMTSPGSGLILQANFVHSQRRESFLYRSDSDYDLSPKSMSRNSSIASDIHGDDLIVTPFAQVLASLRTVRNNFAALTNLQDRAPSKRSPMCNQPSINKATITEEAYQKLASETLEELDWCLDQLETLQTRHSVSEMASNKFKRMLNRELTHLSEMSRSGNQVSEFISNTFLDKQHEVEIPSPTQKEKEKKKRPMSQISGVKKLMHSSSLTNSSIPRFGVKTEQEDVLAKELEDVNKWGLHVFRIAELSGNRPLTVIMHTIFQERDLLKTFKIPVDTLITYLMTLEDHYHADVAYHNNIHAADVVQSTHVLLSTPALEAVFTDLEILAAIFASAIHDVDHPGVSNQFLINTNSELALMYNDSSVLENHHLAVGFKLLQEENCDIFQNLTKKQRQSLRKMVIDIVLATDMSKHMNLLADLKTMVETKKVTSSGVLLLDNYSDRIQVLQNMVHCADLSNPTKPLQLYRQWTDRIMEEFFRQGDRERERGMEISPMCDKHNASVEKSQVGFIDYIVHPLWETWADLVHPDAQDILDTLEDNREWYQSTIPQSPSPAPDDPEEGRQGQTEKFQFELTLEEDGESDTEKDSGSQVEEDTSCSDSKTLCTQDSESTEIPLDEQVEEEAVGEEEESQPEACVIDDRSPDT
property: pEC50
# reply with the number alone; pEC50 is -log10 of concentration in mol/L

Req: For the molecule shown here, `NC(=O)c1cccc(-c2c(-c3ccccc3)oc(=O)c3c2nn2c(-c4ccccc4)ccnc32)c1` , give the reported pEC50.
Resp: 5.02

====

biological target: 3',5'-cyclic-AMP phosphodiesterase 4A (Homo sapiens, UniProt P27815); test: Inhibition of PDE4A4 (unknown origin) transfected in HEK293 cells assessed as forskolin-induced cAMP accumulation pretreated for 30 mins before forskolin challenge by luciferase reporter gene assay; type: cell-based
Sequence (P27815 whole entry): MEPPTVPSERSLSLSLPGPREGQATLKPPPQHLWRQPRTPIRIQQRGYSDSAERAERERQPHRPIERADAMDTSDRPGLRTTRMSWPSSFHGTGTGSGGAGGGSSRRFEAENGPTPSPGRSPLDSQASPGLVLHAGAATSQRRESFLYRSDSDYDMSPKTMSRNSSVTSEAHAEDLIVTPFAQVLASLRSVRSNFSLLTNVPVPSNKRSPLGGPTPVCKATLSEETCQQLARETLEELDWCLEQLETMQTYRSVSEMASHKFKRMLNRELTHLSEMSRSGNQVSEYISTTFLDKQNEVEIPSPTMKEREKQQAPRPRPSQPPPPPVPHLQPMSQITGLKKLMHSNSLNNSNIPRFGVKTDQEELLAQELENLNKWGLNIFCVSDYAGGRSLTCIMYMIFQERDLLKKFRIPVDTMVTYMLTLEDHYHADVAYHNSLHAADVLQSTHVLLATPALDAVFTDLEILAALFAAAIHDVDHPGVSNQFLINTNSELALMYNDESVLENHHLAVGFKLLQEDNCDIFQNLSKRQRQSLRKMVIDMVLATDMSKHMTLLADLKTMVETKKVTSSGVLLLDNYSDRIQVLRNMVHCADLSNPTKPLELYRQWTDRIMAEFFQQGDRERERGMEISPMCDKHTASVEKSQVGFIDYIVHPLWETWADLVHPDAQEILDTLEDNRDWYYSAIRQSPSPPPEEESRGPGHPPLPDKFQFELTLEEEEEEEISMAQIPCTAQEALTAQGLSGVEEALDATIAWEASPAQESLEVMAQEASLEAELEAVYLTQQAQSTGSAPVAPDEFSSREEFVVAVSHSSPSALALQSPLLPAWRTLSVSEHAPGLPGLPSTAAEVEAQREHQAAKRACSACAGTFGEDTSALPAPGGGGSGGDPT
property: pEC50
Please note pEC50 is a logarithmic value: minus log10 of concentration in mol/L. Answer with that number alone.

Req: Any idea what pEC50 was measured for `NC(=O)c1cccc(-c2c(-c3ccccc3)oc(=O)c3c2nn2c(-c4ccccc4)ccnc32)c1` ?
Resp: 4.93

====

biological target: 3',5'-cyclic-AMP phosphodiesterase 4B (Homo sapiens, UniProt Q07343); assay: Inhibition of His-tagged recombinant human PDE4B1 expressed in baculovirus infected sf9 cells using cAMP as substrate preincubated for 15 mins followed by substrate addition measured after 1 hr by luminescence assay
Sequence (Q07343 whole entry): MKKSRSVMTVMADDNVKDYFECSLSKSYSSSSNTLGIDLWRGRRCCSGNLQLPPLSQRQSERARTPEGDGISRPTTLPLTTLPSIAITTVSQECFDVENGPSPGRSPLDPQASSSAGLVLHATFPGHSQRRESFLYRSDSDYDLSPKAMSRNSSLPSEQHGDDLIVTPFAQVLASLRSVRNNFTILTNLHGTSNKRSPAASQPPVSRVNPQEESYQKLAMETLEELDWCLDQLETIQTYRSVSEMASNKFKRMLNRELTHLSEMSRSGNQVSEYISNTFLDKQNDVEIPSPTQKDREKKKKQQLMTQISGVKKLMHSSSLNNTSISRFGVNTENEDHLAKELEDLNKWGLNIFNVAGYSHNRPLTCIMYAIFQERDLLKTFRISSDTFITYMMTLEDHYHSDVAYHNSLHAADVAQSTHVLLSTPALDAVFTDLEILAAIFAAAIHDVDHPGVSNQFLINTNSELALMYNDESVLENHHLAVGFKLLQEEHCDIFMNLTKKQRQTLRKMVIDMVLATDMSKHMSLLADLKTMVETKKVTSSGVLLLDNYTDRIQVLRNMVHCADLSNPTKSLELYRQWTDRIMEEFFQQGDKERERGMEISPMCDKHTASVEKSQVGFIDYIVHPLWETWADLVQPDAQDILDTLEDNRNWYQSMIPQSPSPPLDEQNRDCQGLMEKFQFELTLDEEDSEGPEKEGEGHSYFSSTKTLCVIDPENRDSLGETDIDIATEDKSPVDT
property: pIC50
Note on pIC50: it is the negative log10 of concentration, concentration in mol/L.

Req: State the recorded pIC50 for this entry: `NC(=O)c1cccc(-c2c(-c3ccccc3)oc(=O)c3c2nn2c(-c4ccccc4)ccnc32)c1`
Resp: 5.88

====

biological target: UniProtKB Q08499
property: IC50 (nM)
Write down the numeric answer in nM and omit the unit.

Req: I am curious: what IC50 value has been reported for `NC(=O)c1cccc(-c2c(-c3ccccc3)oc(=O)c3c2nn2c(-c4ccccc4)ccnc32)c1` ?
Resp: 2840
